- Test system: OVCAR-4 ovarian
- PROCEDURE TEXT: NCI tumour cell line growth inhibition, 48 h
READOUT KIND: TGI

Known TGI results, listed for orientation:
[[record]]
compound = "COc1ccccc1Cn1c2c(c3c(C(=O)NCCN(C)C)c(O)ccc31)C(=O)c1ccccc1C2=O"
reported_value = "3.04 µM"

[[record]]
compound = "C=C1C(=O)OC2/C=C(\\C)C3OC3/C=C(/C(=O)OC)C(OC(C)=O)C(OC(=O)C(C)(O)C(C)OC(C)=O)C12 (stereo unspecified)"
reported_value = "12.6 µM"

[[record]]
compound = "O=C1c2cccnc2C(=O)c2c1c(C(=O)OCCN1CCOCC1)c1ccccn21"
reported_value = "5.29 µM"

[[record]]
compound = "CCN(CC)c1nc(N(C)C)c2cc(OC)ccc2n1"
reported_value = "> 100 µM"

[[record]]
compound = "COc1cc(C2C(C#N)=C(N)Oc3cc(O)ccc32)cc(OC)c1OC (stereo unspecified)"
reported_value = "> 100 µM"


Query: Read the entry `COc1cc(OC)cc(-c2cncn2-c2ccc(-c3nc4cc(OC)c(OC)c(OC)c4s3)cc2)c1` and write its reported TGI.
Reply: > 100 µM

Query: Please list TGI recorded for the compound CC(O[Si](C)(C)C)C1C=CC(C)n2c(=O)n(-c3ccccc3)c(=O)n21 (stereo unspecified)
Reply: > 100 µM

Query: Give a short answer stating reported TGI for `CC(=O)Nc1sc2c(c1-c1nc3ccccc3s1)CNC2` .
Reply: 24.8 µM

Query: Return the recorded TGI value; entry: CN1CCCCC1CCN1c2ccccc2Sc2ccc(S(C)=O)cc21 (stereo unspecified)
Reply: > 100 µM

Query: For the compound `Cc1cc(-c2nc3cc(F)c(F)cc3s2)ccc1N` , give its reported TGI.
Reply: > 100 µM

Query: Please report the measured TGI for CC1(C)CC[C@]2(C(=O)O)CC[C@]3(C)C(=CC[C@@H]4[C@@]5(C)CC[C@H](OC6OC(CO)C(O)C(O)C6OC6OC(CO)C(O)C(O)C6O)C(C)(C)[C@@H]5CC[C@]43C)[C@@H]2C1 (stereo partly specified)
Reply: 30.5 µM

Query: Fill in TGI for record `CCOP(=O)(OCC)/C(C#N)=C/c1c(C)[nH]c2ccccc12`
Reply: > 100 µM

Query: Please list TGI recorded for the compound N#CC1=C(c2ccccc2)C(O)(c2ccccc2)NC1=O (stereo unspecified)
Reply: > 100 µM

Query: Determine its reported TGI: `Cc1cccc(NC(=S)N/N=C(/c2ccccc2)c2ccccn2)c1`
Reply: 17.2 µM

Query: Provide only the value of recorded TGI for `Cc1cc2c(cc1C)[n+](=O)c(C(=O)/C=C/c1ccccc1Cl)c(C)n2[O-]`
Reply: > 100 µM

Query: Annotate the compound `O=C1C(Cl)=C(Nc2cccc(O)c2)C(=O)N1c1cccc(Cl)c1Cl` with its measured TGI.
Reply: 40.5 µM

Query: Fill in TGI for record CC(C)(C)NC1C2CCC(C)(C1O)C2(C)C (stereo unspecified)
Reply: > 100 µM
